Cited source: patent US20140018347A1

So I've got pIC50 readings for UniProtKB P42345, take a look.
pIC50: −log10 of the molar value.

Use these answered entries as a reference point.
Compound	Target Or System	pIC50
Cc1nc(NS(C)(=O)=O)nc(N2CCOc3ccc(-c4cnc5sc(N)nc5c4)cc3C2)c1C(C)C	UniProtKB P42345	≥ 7.00
Cc1nc(N)nc(N2CCOc3ccc(-c4cnc5sc(N)nc5c4)cc3C2)c1C1CC1	UniProtKB P42345	5.60 to 6.30

Query string: For the record `C=C(C)c1c(C)nc(N)nc1N1CCOc2ccc(-c3cnc4sc(N)nc4c3)cc2C1` , what value of pIC50 is listed for UniProtKB P42345?
Result string: ≥ 7.00

---

Target: PI3Kalpha (Homo sapiens, UniProt P42336)
Sequence (P42336 whole entry): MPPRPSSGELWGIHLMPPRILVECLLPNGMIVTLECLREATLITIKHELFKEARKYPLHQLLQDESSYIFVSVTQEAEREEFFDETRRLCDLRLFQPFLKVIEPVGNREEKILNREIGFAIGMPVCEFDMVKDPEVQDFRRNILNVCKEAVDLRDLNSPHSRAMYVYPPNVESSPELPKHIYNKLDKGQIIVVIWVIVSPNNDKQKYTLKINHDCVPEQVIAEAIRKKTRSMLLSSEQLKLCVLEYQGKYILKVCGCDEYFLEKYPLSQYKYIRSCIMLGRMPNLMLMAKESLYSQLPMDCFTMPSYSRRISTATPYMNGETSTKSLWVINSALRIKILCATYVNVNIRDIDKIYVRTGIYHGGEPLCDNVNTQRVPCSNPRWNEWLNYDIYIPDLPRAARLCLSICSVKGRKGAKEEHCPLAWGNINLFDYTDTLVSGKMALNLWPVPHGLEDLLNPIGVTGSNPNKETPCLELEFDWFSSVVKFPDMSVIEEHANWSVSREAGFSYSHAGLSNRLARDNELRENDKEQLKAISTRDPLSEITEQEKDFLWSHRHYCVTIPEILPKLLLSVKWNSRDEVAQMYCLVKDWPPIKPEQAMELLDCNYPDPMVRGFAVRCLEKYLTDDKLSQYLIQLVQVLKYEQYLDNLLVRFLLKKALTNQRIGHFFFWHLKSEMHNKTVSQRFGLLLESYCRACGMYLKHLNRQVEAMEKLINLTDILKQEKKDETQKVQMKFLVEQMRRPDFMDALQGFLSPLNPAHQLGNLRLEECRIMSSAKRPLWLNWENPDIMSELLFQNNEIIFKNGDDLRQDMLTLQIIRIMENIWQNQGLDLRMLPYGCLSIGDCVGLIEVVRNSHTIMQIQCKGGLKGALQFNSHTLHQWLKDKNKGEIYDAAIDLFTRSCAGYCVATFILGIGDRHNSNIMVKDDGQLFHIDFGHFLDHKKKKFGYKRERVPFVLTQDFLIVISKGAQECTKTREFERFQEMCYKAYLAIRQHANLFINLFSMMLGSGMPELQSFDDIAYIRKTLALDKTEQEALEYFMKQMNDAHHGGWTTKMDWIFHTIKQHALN
Sequence (P27986 whole entry partner): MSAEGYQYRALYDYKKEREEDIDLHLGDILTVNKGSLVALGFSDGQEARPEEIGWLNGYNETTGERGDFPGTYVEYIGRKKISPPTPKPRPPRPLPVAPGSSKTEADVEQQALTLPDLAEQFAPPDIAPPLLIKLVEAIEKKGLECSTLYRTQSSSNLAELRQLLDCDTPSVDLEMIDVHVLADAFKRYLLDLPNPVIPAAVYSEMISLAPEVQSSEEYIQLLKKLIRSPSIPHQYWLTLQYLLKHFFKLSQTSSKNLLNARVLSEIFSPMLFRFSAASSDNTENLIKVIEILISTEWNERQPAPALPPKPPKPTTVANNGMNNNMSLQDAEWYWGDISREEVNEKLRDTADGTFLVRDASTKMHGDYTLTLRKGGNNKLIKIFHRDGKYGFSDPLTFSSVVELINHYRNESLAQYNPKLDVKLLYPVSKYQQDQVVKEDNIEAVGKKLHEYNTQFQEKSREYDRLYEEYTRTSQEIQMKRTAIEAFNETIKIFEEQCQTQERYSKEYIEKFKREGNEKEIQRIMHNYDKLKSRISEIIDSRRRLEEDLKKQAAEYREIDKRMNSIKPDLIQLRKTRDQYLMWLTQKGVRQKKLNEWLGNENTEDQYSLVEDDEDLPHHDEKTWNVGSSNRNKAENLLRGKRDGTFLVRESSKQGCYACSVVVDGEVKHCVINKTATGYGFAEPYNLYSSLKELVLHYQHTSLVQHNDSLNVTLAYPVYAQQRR
pIC50: −log10 of the molar value.
Test Readout: pIC50

Compound	Reading
Nc1nc2cc(-c3ccc4c(c3)CN(c3ncc(C(F)(F)F)c(N)n3)CCO4)cnc2s1	6.30 to 7.00
Cc1nc(CN(C)C)nc(N2CCOc3ccc(-c4cnc5sc(N)nc5c4)cc3C2)c1CC(O)CO (stereo not shown)	5.60 to 6.30
Cc1nc(N)nc(N2CCOc3c(Cl)cc(-c4cnc5sc(N)nc5c4)cc3C2)c1C(C)C	≥ 7.00

Here is the next item to consider.
Query string: Which pIC50 reading was recorded for the compound `CCN(CC)Cc1nc(C)c(C(C)C)c(N2CCOc3ccc(-c4cnc5sc(N)nc5c4)cc3C2)n1` ?
Result string: ≥ 7.00

---

pIC50: −log10 of the molar value.
So I've got pIC50 readings for PI3Kalpha (Homo sapiens, UniProt P42336), take a look.

Compound	Reading
CC(C)c1c(F)nc(N)nc1N1CCOc2ccc(-c3cnc4sc(N)nc4c3)cc2C1 [Compound 10]	≥ 7.00

Query string: For the record COc1nc(N)nc(N2CCOc3ccc(-c4cnc5sc(N)nc5c4)cc3C2)c1C [Compound 67] , what value of pIC50 is listed for PI3Kalpha (Homo sapiens, UniProt P42336)?
Result string: ≥ 7.00

Query string: For the record Cc1c(N)nc(N)nc1N1CCOc2ccc(-c3cnc4sc(N)nc4c3)cc2C1 [Compound 73] , what value of pIC50 is listed for PI3Kalpha (Homo sapiens, UniProt P42336)?
Result string: ≥ 7.00

Query string: For the record C=CCc1c(C)nc(N)nc1N1CCOc2ccc(-c3cnc4sc(N)nc4c3)cc2C1 [Compound 83] , what value of pIC50 is listed for PI3Kalpha (Homo sapiens, UniProt P42336)?
Result string: ≥ 7.00

Query string: For the record COCCc1c(C)nc(CN(C)C)nc1N1CCOc2ccc(-c3cnc4sc(N)nc4c3)cc2C1 [Compound 13] , what value of pIC50 is listed for PI3Kalpha (Homo sapiens, UniProt P42336)?
Result string: ≥ 7.00

Query string: For the record Nc1cc(Cl)nc(N2CCOc3ccc(-c4cnc5sc(N)nc5c4)cc3C2)n1 [Compound 50] , what value of pIC50 is listed for PI3Kalpha (Homo sapiens, UniProt P42336)?
Result string: 6.30 to 7.00

Query string: For the record Cc1nc(N)nc(N2CCOc3ccc(-c4cnc5sc(N)nc5c4)cc3C2)c1C#N [Compound 72] , what value of pIC50 is listed for PI3Kalpha (Homo sapiens, UniProt P42336)?
Result string: ≥ 7.00

---

So I've got IC50 readings for mTORC1 (Homo sapiens, UniProt P42345), take a look.

Use these answered entries as a reference point.
Compound	IC50
Cc1cnc(N)nc1N1CCOc2ccc(-c3cnc4sc(N)nc4c3)cc2C1 [Compound 35]	100 to 500 nM
Cc1nc(S(C)(=O)=O)nc(N2CCOc3ccc(-c4cnc5sc(N)nc5c4)cc3C2)c1C(C)C [Compound 24]	≤ 100 nM
CCCc1c(Cl)nc(N)nc1N1CCOc2ccc(-c3cnc4sc(N)nc4c3)cc2C1 [Compound 9]	≤ 100 nM
CC(O)c1c(Cl)nc(N)nc1N1CCOc2ccc(-c3cnc4sc(N)nc4c3)cc2C1 (stereo not drawn) [Compound 53]	≤ 100 nM

Query string: For the record CC(C)c1c(Cl)nc(N)nc1N1CCOc2ccc(-c3cnc4sc(N)nc4c3)cc2C1 [Compound 8] , what value of IC50 is listed for mTORC1 (Homo sapiens, UniProt P42345)?
Result string: ≤ 100 nM

Query string: For the record CCc1c(C)nc(CN(C)C)nc1N1CCOc2ccc(-c3cnc4sc(N)nc4c3)cc2C1 [Compound 1] , what value of IC50 is listed for mTORC1 (Homo sapiens, UniProt P42345)?
Result string: 100 to 500 nM

---

Target: mTORC1 (Homo sapiens)
pIC50: −log10 of the molar value.
Property: pIC50; scope: individual compounds

Use these answered entries as a reference point.
Compound	Reading
CCCc1c(C)nc(N)nc1N1CCOc2ccc(-c3cnc4sc(N)nc4c3)cc2C1	≥ 7.00
CC(C)c1c(F)nc(N)nc1N1CCOc2ccc(-c3cnc4sc(N)nc4c3)cc2C1	≥ 7.00
CNc1nc(N)nc(N2CCOc3ccc(-c4cnc5sc(N)nc5c4)cc3C2)c1C	6.30 to 7.00
C=Cc1c(C)nc(N)nc1N1CCOc2ccc(-c3cnc4sc(N)nc4c3)cc2C1	≥ 7.00
C=CCc1c(C)nc(CN(C)C)nc1N1CCOc2ccc(-c3cnc4sc(N)nc4c3)cc2C1	≥ 7.00
Nc1nc2c(c(N3CCOc4ccc(-c5cnc6sc(N)nc6c5)cc4C3)n1)CCC2	≥ 7.00

Query string: Which pIC50 reading was recorded for the compound `CC1(C)CC(=O)c2sc(N3CCOc4ccc(-c5cnc6sc(N)nc6c5)cc4C3)nc2C1` ?
Result string: 6.30 to 7.00

Query string: Which pIC50 reading was recorded for the compound `Cc1cc(N2CCOc3ccc(-c4cnc5sc(N)nc5c4)cc3C2)nc(N)n1` ?
Result string: 5.60 to 6.30

Query string: Which pIC50 reading was recorded for the compound `CC1(C)CCc2nc(CC#N)nc(N3CCOc4ccc(-c5cnc6sc(N)nc6c5)cc4C3)c2C1` ?
Result string: ≥ 7.00

---

Target: PI3Kalpha (Homo sapiens)
Property: IC50; scope: individual compounds

Smiles String	Test Readout	Reading
C=Cc1c(C)nc(N)nc1N1CCOc2ccc(-c3cnc4sc(N)nc4c3)cc2C1	IC50	≤ 100 nM
CC1(C)Cc2nc(N3CCOc4ccc(-c5cnc6sc(N)nc6c5)cc4C3)sc2C(=O)N1	IC50	100 to 500 nM

Here is the next item to consider.
Query string: For the record `Cc1nc(N)nc(N2CCOc3c(F)cc(-c4cnc5sc(N)nc5c4)cc3C2)c1C(C)C` , what value of IC50 is listed for PI3Kalpha (Homo sapiens)?
Result string: ≤ 100 nM

---

pIC50: −log10 of the molar value.
So I've got pIC50 readings for mTORC1 (Homo sapiens, UniProt P42345), take a look.

Use these answered entries as a reference point.
Compound	pIC50
Cc1nc(C(N)=O)nc(N2CCOc3ccc(-c4cnc5sc(N)nc5c4)cc3C2)c1C(C)C [Compound 20]	≥ 7.00
Cc1nc(CNCCF)nc(N2CCOc3ccc(-c4cnc5sc(N)nc5c4)cc3C2)c1C(C)C [Compound 82]	≥ 7.00
Cc1nc(N)nc(N2CCOc3ccc(-c4cnc5sc(N)nc5c4)cc3C2)c1C [Compound 5]	6.30 to 7.00
COC(C)c1c(Cl)nc(N)nc1N1CCOc2ccc(-c3cnc4sc(N)nc4c3)cc2C1 (stereo not drawn) [Compound 96]	≥ 7.00
CNc1nc(C)c(C(C)C)c(N2CCOc3ccc(-c4cnc5sc(N)nc5c4)cc3C2)n1 [Compound 92]	≥ 7.00

Query string: For the record Nc1cc(N2CCOc3ccc(-c4cnc5sc(N)nc5c4)cc3C2)nc(N)n1 [Compound 80] , what value of pIC50 is listed for mTORC1 (Homo sapiens, UniProt P42345)?
Result string: 6.30 to 7.00

Query string: For the record C#CCc1c(C)nc(N)nc1N1CCOc2ccc(-c3cnc4sc(N)nc4c3)cc2C1 [Compound 71] , what value of pIC50 is listed for mTORC1 (Homo sapiens, UniProt P42345)?
Result string: ≥ 7.00

Query string: For the record CC1(C)CCc2nc(N)nc(N3CCOc4ccc(-c5cnc6sc(N)nc6c5)cc4C3)c2C1 [Compound 61] , what value of pIC50 is listed for mTORC1 (Homo sapiens, UniProt P42345)?
Result string: ≥ 7.00

Query string: For the record Nc1ncc(C(F)(F)F)c(N2CCOc3ccc(-c4cnc5sc(N)nc5c4)cc3C2)n1 [Compound 78] , what value of pIC50 is listed for mTORC1 (Homo sapiens, UniProt P42345)?
Result string: ≥ 7.00

Query string: For the record C#Cc1c(C)nc(N)nc1N1CCOc2ccc(-c3cnc4sc(N)nc4c3)cc2C1 [Compound 74] , what value of pIC50 is listed for mTORC1 (Homo sapiens, UniProt P42345)?
Result string: ≥ 7.00
